# System: BT474 cells
# methodSummary: Inhibition of cell proliferation, BT474 (CCK-8, 72 h)
# Type: cell-based
# measurementContext: 72 h incubation
testReadout: IC50

Data request: Data request, read-out IC50, for CN(C)C/C=C/C(=O)N1CCOc2c1ccc1ncnc(Nc3ccc(OCc4cccc(C(F)(F)F)c4)cc3)c21 [Example 62]
Data returned: 50 to 500 nM

###

The entries below come with measured IC50 values attached.
# systemTested: UniProt P00533
# Sequence (P00533 25-1210): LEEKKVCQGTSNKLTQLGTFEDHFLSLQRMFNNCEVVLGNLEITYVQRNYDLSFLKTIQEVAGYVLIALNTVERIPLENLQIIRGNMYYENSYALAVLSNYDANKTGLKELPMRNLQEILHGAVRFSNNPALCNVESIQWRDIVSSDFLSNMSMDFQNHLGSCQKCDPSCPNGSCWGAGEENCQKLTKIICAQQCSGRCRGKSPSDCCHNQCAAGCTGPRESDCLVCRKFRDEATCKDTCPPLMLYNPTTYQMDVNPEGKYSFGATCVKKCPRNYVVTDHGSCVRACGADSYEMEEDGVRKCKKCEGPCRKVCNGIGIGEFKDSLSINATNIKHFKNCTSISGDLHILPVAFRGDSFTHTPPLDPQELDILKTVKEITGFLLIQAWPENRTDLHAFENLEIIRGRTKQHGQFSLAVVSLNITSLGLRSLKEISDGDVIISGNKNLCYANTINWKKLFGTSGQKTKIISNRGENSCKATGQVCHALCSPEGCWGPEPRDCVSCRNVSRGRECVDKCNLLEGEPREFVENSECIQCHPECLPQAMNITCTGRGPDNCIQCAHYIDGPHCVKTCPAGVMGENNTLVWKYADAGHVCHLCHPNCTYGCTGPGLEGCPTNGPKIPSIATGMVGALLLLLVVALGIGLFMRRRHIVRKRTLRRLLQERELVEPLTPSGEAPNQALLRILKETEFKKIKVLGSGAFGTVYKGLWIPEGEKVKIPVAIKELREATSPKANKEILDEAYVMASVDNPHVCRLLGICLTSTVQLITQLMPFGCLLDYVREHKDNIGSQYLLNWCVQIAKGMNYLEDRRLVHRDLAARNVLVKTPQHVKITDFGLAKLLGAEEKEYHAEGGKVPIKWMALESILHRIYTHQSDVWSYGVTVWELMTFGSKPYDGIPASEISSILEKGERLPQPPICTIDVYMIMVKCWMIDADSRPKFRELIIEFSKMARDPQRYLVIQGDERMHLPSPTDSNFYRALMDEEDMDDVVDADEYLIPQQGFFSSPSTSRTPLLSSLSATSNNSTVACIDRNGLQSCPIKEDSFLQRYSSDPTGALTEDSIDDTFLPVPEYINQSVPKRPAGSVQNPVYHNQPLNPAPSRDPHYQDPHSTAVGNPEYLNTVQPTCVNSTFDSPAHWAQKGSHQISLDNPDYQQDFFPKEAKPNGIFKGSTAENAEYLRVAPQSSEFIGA
# methodSummary: Inhibition of EGFR kinase activity (ULight-labeled JAK-1 (Tyr1023) peptide substrate)
# Assay type: biochemical
# measurementContext: EGFR kinase 0.35 nM, ATP 150 μM, 2 hours

Field: example entries. Status: answers known.
[
  {
    "compoundStructureString": "O=C(/C=C/CN1CCCCC1)N1CCOc2c1ccc1ncnc(Nc3ccc(Oc4ccccc4)cc3)c21",
    "systemTested": "UniProt P00533",
    "IC50": "≤ 0.05 µM"
  },
  {
    "compoundStructureString": "CN(C)C/C=C/C(=O)N1CCOc2c1ccc1ncnc(Nc3ccc(OCc4cccnc4)cc3)c21",
    "systemTested": "UniProt P00533",
    "IC50": "0.5 to 5 µM"
  },
  {
    "compoundStructureString": "CN(C)C/C=C/C(=O)N1CCOc2c1ccc1ncnc(Nc3ccc(OCc4ccncc4)cc3)c21",
    "systemTested": "UniProt P00533",
    "IC50": "0.5 to 5 µM"
  },
  {
    "compoundStructureString": "C=CC(=O)N1CCOc2c1ccc1ncnc(Oc3ccc(OCc4cccc(F)c4)c(Cl)c3)c21",
    "systemTested": "UniProt P00533",
    "IC50": "≤ 0.05 µM"
  },
  {
    "compoundStructureString": "CCN(CC)C/C=C/C(=O)N1CCOc2c1ccc1ncnc(Nc3ccc(OCc4ccccn4)c(Cl)c3)c21",
    "systemTested": "UniProt P00533",
    "IC50": "≤ 0.05 µM"
  },
  {
    "compoundStructureString": "C=CC(=O)N1CCOc2c1ccc1ncnc(Oc3ccc(Oc4ccccc4)cc3)c21",
    "systemTested": "UniProt P00533",
    "IC50": "≤ 0.05 µM"
  }
]

Data request: Entry CN1CCN(C/C=C/C(=O)N2CCOc3c2ccc2ncnc(Nc4ccc(Oc5ccn6ncnc6c5)c(Cl)c4)c32)CC1 : reported IC50 = ?
Data returned: ≤ 0.05 µM

Data request: Consider the molecule shown here: CN(C)C/C=C/C(=O)N1CCOc2c1ccc1ncnc(Nc3ccc(OCc4nccs4)cc3)c21 What is its recorded IC50?
Data returned: ≤ 0.05 µM
